The following compounds are listed with their measured IC50 values.
- measured-on: ATM (Homo sapiens)
- Construct: detecting phosphorylation of Chk2 in a human non-small cell lung cancer cell line NCI-H460 (ATCC company); host or cells: NCI-H460 human non-small cell lung cancer cells
- protocol-details: ATM inhibition test (phosphorylation of Chk2 generated by ionizing radiation, AlphaScreen SureFire)
- Format: cell-based
- experimental-conditions: phosphorylated Chk2 in NCI-H460 cells, ionizing radiation 8Gy, 1 hour after test compound treatment; read-out: ATM inhibitory activity

CN1CCC(Nc2ccc3c(c2)Cc2cccc(-c4cc(N5CCOCC5)cc(=O)[nH]4)c2S3)CC1 = 0.1 to 0.5 µM

Problem: For the compound CC(C)(C)OC(=O)N1CCC(Nc2ccc3c(c2)Cc2cccc(-c4cc(N5CCOCC5)cc(=O)[nH]4)c2O3)CC1 , what IC50 is on record?
Solution: 0.1 to 0.5 µM

Problem: What measured IC50 goes with O=c1cc(N2CCOCC2)cc(-c2cccc3c2Oc2ccc(NCc4cncc(-c5cccnc5)c4)cc2S3)[nH]1 ?
Solution: 0.1 to 0.5 µM

Problem: Consider the compound shown here: O=c1cc(N2CCOCC2)cc(-c2cccc3c2Oc2ccc(NC4CCN(Cc5cccc(C6CC6)n5)CC4)cc2C3)[nH]1 What is its recorded IC50?
Solution: 0.1 to 0.5 µM

Problem: Requested field: IC50. Item: O=c1cc(N2CCOCC2)cc(-c2ccc(F)c3c2Oc2ccc(NCc4cccc(Cl)n4)cc2C3)[nH]1
Solution: 0.1 to 0.5 µM

Problem: Look at this compound and give its reported IC50. O=c1cc(N2CCOCC2)cc(-c2cccc3c2Oc2ccc(NC4CCN(Cc5ccc(C(F)(F)F)nc5)CC4)cc2C3)[nH]1
Solution: 0.5 to 2 µM

Problem: May I ask what IC50 has been recorded for O=c1cc(N2CCOCC2)cc(-c2cccc3c2Sc2ccc(NC4CCN(CC(F)(F)F)CC4)cc2S3)[nH]1 ?
Solution: 0.1 to 0.5 µM

Problem: Which IC50 value belongs to COCCN(C)CCNc1ccc2c(c1)Sc1cccc(-c3cc(N4CCOCC4)cc(=O)[nH]3)c1S2 ?
Solution: 0.1 to 0.5 µM

Problem: Dear colleague, I am looking for the recorded IC50 of the following compound: O=c1cc(N2CCOCC2)cc(-c2cccc3c2Oc2ccc(NCc4ccccc4)cc2C3)[nH]1
Solution: 0.1 to 0.5 µM

Problem: Please look up its IC50: Cc1ccc(C(CC(C)C)Nc2ccc3c(c2)Sc2cccc(-c4cc(N5CCOCC5)cc(=O)[nH]4)c2S3)nc1 (centres unmarked)
Solution: 0.1 to 0.5 µM

Problem: // returns reported IC50 for input COc1ccc(CCN2CCC(Nc3ccc4c(c3)Cc3ccc(F)c(-c5cc(N6CCOCC6)cc(=O)[nH]5)c3O4)CC2)cc1
Solution: 0.1 to 0.5 µM

Problem: Please give the measured IC50 for this compound: O=c1cc(N2CCOCC2)cc(-c2cccc3c2Oc2ccc(NCc4cnc5c(c4)OCCO5)cc2C3)[nH]1
Solution: < 0.1 µM

Problem: Any idea what IC50 was measured for CC(Nc1ccc2c(c1)Sc1cccc(-c3cc(N4CCOCC4)cc(=O)[nH]3)c1S2)c1cc(C#N)ncn1 (centres unmarked) [Example 1-12-84] ?
Solution: 0.1 to 0.5 µM

Problem: Report IC50 for O=c1cc(N2CCOCC2)cc(-c2cccc3c2Oc2ccc(NCc4cccs4)cc2C3)[nH]1 please.
Solution: < 0.1 µM

###

- measured-on: ATM (Homo sapiens, UniProt Q13315)
- Construct: detecting phosphorylation of Chk2 in a human non-small cell lung cancer cell line NCI-H460 (ATCC company); host or cells: NCI-H460 human non-small cell lung cancer cells
- Sequence (Q13315 whole entry): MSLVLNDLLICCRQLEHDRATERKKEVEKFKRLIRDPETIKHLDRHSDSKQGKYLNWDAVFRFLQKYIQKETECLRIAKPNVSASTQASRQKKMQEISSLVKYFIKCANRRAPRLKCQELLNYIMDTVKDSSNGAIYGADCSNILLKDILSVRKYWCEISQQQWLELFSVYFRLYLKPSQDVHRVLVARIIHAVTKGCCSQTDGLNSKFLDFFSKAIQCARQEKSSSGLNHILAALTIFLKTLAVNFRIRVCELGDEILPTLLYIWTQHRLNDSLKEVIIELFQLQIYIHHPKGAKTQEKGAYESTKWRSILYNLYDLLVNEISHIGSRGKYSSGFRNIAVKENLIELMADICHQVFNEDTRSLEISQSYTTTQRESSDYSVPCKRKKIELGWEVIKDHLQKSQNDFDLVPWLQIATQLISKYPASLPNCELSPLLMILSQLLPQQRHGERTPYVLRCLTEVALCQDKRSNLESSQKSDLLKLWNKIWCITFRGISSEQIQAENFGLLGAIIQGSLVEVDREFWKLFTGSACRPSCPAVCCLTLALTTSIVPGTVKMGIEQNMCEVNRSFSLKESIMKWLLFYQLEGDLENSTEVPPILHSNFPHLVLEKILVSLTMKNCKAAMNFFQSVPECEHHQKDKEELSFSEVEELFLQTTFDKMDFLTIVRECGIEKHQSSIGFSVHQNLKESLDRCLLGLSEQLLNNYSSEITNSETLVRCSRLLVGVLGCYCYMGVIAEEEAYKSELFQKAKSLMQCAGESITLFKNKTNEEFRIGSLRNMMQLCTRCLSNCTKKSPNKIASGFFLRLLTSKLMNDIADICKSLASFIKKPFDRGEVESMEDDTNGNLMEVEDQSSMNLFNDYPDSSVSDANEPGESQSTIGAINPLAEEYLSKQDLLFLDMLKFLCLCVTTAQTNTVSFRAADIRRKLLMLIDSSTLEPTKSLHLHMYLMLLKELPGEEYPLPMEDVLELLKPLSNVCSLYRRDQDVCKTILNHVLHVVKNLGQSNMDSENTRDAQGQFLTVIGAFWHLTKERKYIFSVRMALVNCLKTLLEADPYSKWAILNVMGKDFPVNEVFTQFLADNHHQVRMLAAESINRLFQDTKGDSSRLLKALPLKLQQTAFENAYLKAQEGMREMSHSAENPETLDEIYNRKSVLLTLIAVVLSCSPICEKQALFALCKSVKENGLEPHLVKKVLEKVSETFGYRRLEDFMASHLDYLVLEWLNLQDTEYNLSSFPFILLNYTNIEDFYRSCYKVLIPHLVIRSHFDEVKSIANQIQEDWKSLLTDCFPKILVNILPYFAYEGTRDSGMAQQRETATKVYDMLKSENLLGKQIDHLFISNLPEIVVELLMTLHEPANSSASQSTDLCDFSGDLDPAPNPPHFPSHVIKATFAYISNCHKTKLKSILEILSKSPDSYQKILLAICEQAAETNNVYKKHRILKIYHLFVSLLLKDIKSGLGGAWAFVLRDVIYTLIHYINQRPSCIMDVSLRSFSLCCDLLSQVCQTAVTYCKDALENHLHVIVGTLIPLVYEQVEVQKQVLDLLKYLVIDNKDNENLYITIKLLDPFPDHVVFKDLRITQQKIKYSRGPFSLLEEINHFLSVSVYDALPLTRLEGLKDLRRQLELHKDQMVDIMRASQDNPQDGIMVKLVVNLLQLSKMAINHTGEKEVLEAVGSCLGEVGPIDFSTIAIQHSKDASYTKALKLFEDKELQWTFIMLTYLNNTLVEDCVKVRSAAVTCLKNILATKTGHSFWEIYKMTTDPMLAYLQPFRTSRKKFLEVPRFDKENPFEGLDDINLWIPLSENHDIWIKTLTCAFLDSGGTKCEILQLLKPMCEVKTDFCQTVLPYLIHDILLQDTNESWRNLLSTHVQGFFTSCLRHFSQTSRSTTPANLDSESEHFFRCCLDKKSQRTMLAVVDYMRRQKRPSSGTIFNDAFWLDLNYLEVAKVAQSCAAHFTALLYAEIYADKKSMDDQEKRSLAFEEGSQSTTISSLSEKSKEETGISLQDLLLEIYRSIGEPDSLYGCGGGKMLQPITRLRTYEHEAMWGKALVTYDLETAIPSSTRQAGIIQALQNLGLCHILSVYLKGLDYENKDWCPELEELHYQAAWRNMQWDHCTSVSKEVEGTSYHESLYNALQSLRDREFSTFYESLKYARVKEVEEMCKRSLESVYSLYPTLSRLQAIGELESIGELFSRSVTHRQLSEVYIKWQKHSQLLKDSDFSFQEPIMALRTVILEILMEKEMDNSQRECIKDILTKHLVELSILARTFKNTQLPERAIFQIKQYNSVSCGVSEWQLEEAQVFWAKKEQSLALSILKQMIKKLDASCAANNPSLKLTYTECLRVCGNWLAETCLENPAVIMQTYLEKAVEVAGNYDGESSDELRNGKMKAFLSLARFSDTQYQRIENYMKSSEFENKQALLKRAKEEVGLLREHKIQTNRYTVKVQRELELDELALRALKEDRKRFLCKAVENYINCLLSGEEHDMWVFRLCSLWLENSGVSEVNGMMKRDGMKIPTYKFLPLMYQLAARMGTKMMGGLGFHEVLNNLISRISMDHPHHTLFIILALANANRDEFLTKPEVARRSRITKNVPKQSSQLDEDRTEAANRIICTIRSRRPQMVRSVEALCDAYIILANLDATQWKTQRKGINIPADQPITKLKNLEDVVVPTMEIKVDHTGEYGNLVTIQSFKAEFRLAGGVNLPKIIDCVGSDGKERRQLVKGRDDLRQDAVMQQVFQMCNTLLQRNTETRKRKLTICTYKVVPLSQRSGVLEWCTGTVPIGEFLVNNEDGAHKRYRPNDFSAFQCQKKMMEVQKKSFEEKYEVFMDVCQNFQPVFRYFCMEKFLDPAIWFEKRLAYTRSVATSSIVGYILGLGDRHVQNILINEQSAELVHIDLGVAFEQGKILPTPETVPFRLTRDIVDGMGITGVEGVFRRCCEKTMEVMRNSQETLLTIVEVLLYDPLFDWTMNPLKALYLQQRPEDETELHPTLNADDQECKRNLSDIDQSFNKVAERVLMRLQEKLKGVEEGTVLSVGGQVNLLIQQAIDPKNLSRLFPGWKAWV
- protocol-details: ATM inhibition test (phosphorylation of Chk2 generated by ionizing radiation, AlphaScreen SureFire)
- Type: cell-based
- experimental-conditions: phosphorylated Chk2 in NCI-H460 cells, ionizing radiation 8Gy, 1 hour after test compound treatment; read-out: ATM inhibitory activity
reported-metric: IC50

See these solved cases before continuing.
O=c1cc(N2CCOCC2)cc(-c2cccc3c2Sc2ccc(NC(CO)CN4CCCC4)cc2S3)[nH]1 (stereo not shown) [Example 1-37-3] = 500 to 2000 nM
O=c1cc(N2CCOCC2)cc(-c2cccc3c2Sc2ccc(NC(CF)CN4CCOCC4)cc2S3)[nH]1 (single isomer, unassigned) [Example 1-41-1-2] = < 100 nM
COCCN1CCCC(Nc2ccc3c(c2)Sc2cccc(-c4cc(N5CCOCC5)cc(=O)[nH]4)c2S3)C1 (stereo not shown) [Example 1-26-2] = < 100 nM

Now for a further compound.
Problem: Which value of IC50 has been reported for O=C(CN1CCCOCC1)Nc1ccc2c(c1)Sc1cccc(-c3cc(N4CCOCC4)cc(=O)[nH]3)c1S2 [Example 1-7-3] in the records?
Solution: 500 to 2000 nM

###

Each entry below carries its recorded IC50.
- measured-on: ATM (Homo sapiens, UniProt Q13315)
- Construct: detecting phosphorylation of Chk2 in a human non-small cell lung cancer cell line NCI-H460 (ATCC company); host or cells: NCI-H460 human non-small cell lung cancer cells
- protocol-details: ATM inhibition test (phosphorylation of Chk2 generated by ionizing radiation, AlphaScreen SureFire)
- Assay type: cell-based
- experimental-conditions: phosphorylated Chk2 in NCI-H460 cells, ionizing radiation 8Gy, 1 hour after test compound treatment; read-out: ATM inhibitory activity

Problem: Record request: IC50 value, item Cc1ccc(C(Nc2ccc3c(c2)Sc2cccc(-c4cc(N5CCOCC5)cc(=O)[nH]4)c2S3)[C@@H]2CCN(C)C2)nc1 (single isomer, unassigned)
Solution: < 100 nM

Problem: I'd like to know its IC50. The molecule in question is COCC(CN1CCOCC1)Nc1ccc2c(c1)Sc1cccc(-c3cc(N4CCOCC4)cc(=O)[nH]3)c1S2 (single isomer, unassigned) [Example 1-17-1-2]
Solution: < 100 nM

Problem: Data request, read-out IC50, for Cc1cc(C)nc(CNc2ccc3c(c2)Cc2cccc(-c4cc(N5CCOCC5)cc(=O)[nH]4)c2O3)c1
Solution: 100 to 500 nM

###

- measured-on: ATM (Homo sapiens, UniProt Q13315)
- Construct: detecting phosphorylation of Chk2 in a human non-small cell lung cancer cell line NCI-H460 (ATCC company); host or cells: NCI-H460 human non-small cell lung cancer cells
- protocol-details: ATM inhibition test (phosphorylation of Chk2 generated by ionizing radiation, AlphaScreen SureFire)
- Format: cell-based
- experimental-conditions: phosphorylated Chk2 in NCI-H460 cells, ionizing radiation 8Gy, 1 hour after test compound treatment; read-out: ATM inhibitory activity
reported-metric: IC50

Worked examples follow.
CN(C)c1nccc(CNc2ccc3c(c2)Cc2cccc(-c4cc(N5CCOCC5)cc(=O)[nH]4)c2O3)n1 [Example 2-13-5] = < 100 nM
CC(CN1CCOCC1)Nc1ccc2c(c1)Sc1cccc(-c3cc(N4CCOCC4)cc(=O)[nH]3)c1S2 (single isomer, unassigned) [Example 1-13-2-3] = 100 to 500 nM
Cc1ccc(C(Nc2ccc3c(c2)Sc2cccc(-c4cc(N5CCOCC5)cc(=O)[nH]4)c2S3)C2CN(CCO)CCO2)nc1 (racemic) [Example 1-57-1] = < 100 nM

Problem: Which IC50 is reported with ATM (Homo sapiens, UniProt Q13315) for this entry: CNCCC(Nc1ccc2c(c1)Sc1cccc(-c3cc(N4CCOCC4)cc(=O)[nH]3)c1S2)c1cccc(C)n1 (stereo not drawn) [Example 1-20-12] ?
Solution: 100 to 500 nM

Problem: // lookup IC50 | system=ATM (Homo sapiens, UniProt Q13315) | key= COc1ncc(CNc2ccc3c(c2)Sc2cccc(-c4cc(N5CCOCC5)cc(=O)[nH]4)c2S3)cn1 [Example 1-12-10]
Solution: 100 to 500 nM

Problem: What value of IC50 on ATM (Homo sapiens, UniProt Q13315) does CC(CN1CCN(C(C)C)CC1)Nc1ccc2c(c1)Sc1cccc(-c3cc(N4CCOCC4)cc(=O)[nH]3)c1S2 (stereo not drawn) [Example 1-13-14] have?
Solution: 100 to 500 nM

###

- measured-on: ATM (Homo sapiens, UniProt Q13315)
- Construct: detecting phosphorylation of Chk2 in a human non-small cell lung cancer cell line NCI-H460 (ATCC company); host or cells: NCI-H460 human non-small cell lung cancer cells
- protocol-details: ATM inhibition test (phosphorylation of Chk2 generated by ionizing radiation, AlphaScreen SureFire)
- Type: cell-based
- experimental-conditions: phosphorylated Chk2 in NCI-H460 cells, ionizing radiation 8Gy, 1 hour after test compound treatment; read-out: ATM inhibitory activity
reported-metric: IC50

Past entries and their recorded results:
O=c1cc(N2CCOCC2)cc(-c2cccc3c2Sc2ccc(NCCN4C5CCC4COC5)cc2S3)[nH]1 = < 100 nM
COC[C@H](CN(C)C1CCCCC1)Nc1ccc2c(c1)Sc1cccc(-c3cc(N4CCOCC4)cc(=O)[nH]3)c1S2 = 100 to 500 nM
COc1cccnc1CNc1ccc2c(c1)Cc1ccnc(-c3cc(N4CCOCC4)cc(=O)[nH]3)c1O2 = 500 to 2000 nM
COc1ncc(CNc2ccc3c(c2)Sc2cccc(-c4cc(N5CCOCC5)cc(=O)[nH]4)c2O3)cn1 = < 100 nM
O=c1cc(N2CCOCC2)cc(-c2cccc3c2Oc2ccc(NCc4cncc(N5CCCC5)c4)cc2S3)[nH]1 = < 100 nM
CC(CN1CCC(Nc2ccc3c(c2)Cc2cccc(-c4cc(N5CCOCC5)cc(=O)[nH]4)c2O3)CC1)c1ccccc1 (centres unmarked) = 100 to 500 nM
O=c1cc(N2CCOCC2)cc(-c2cccc3c2Sc2ccc(NC4CCCN(Cc5cccnc5)C4)cc2S3)[nH]1 (centres unmarked) = < 100 nM
O=c1cc(N2CCOCC2)cc(-c2cccc3c2Oc2ccc(NCc4cc(-n5cccc5)ccn4)cc2C3)[nH]1 = < 100 nM

Problem: Consider the compound O=c1cc(N2CCOCC2)cc(-c2cccc3c2Oc2ccc(NCc4ccoc4)cc2C3)[nH]1 and give its measured IC50.
Solution: 100 to 500 nM

Problem: Give its IC50 value. Item: COC[C@H](CN1CCO[C@H](C)C1)Nc1ccc2c(c1)Sc1cccc(-c3cc(N4CCOCC4)cc(=O)[nH]3)c1S2
Solution: < 100 nM

Problem: What does the record list as IC50 for COc1cncc(CNc2ccc3c(c2)Cc2cccc(-c4nc(N5CCOCC5)cc(=O)[nH]4)c2O3)c1 ?
Solution: 100 to 500 nM

Problem: Query (compound): Cc1ccc(C(CCN(C)CCO)Nc2ccc3c(c2)Sc2cccc(-c4cc(N5CCOCC5)cc(=O)[nH]4)c2S3)nc1 (single isomer, unassigned) ; field requested: IC50
Solution: < 100 nM

Problem: Report IC50 for CNc1cncc(CNc2ccc3c(c2)Cc2cccc(-c4cc(N5CCOCC5)cc(=O)[nH]4)c2O3)c1 please.
Solution: 100 to 500 nM

Problem: Can you share its IC50? I mean this compound: Cc1ccnc(C(CO)Nc2ccc3c(c2)Sc2cccc(-c4cc(N5CCOCC5)cc(=O)[nH]4)c2S3)n1 (centres unmarked)
Solution: < 100 nM
